Entries below carry reported Ki on M-phase inducer phosphatase 2 (Homo sapiens, UniProt P30305).
Sequence (P30305 whole entry): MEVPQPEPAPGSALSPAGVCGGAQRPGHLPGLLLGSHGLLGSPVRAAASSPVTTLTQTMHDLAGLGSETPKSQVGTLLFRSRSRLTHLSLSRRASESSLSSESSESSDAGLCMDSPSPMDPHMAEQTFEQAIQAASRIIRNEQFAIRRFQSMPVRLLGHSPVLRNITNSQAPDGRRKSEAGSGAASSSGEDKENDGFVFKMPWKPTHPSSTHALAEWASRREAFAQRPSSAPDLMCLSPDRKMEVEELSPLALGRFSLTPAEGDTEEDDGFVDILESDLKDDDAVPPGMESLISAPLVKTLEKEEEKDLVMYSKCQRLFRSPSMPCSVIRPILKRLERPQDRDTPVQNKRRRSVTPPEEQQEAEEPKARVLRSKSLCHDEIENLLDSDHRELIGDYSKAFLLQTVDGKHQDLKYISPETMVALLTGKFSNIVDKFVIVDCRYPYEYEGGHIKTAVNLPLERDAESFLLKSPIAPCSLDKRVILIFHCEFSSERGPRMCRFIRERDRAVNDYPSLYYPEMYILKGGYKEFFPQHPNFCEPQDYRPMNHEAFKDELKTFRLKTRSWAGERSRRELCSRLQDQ
metric: Ki (nM)

- given_smiles: "O=C(O)/C=C/c1ccc[c]([Sb](=[O])([OH])[OH])c1"
  metric: "Ki"
  unit: "nM"
  number: 369
- given_smiles: "O=C(O)CCc1ccc[c]([Sb](=[O])([OH])[OH])c1"
  metric: "Ki"
  unit: "nM"
  number: 4700

###

# system_under_test: Phosphatidylinositol 3,4,5-trisphosphate 3-phosphatase and dual-specificity protein phosphatase PTEN (Homo sapiens, UniProt P60484)
# Sequence (P60484 whole entry): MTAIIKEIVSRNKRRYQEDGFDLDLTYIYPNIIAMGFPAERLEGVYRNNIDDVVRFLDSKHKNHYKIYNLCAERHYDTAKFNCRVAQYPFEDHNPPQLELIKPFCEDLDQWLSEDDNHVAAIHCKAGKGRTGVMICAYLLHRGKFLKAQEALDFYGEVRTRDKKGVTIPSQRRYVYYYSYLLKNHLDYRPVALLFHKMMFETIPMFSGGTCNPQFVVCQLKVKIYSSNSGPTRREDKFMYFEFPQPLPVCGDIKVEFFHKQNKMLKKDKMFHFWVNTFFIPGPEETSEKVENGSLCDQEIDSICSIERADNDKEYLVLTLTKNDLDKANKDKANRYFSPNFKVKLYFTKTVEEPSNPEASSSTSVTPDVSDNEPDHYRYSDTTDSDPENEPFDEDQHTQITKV

- given_smiles: "O=C(O)CCc1ccc[c]([Sb](=[O])([OH])[OH])c1"
  IC50: "8.87 µM"
- given_smiles: "O=C(O)/C=C/c1ccc[c]([Sb](=[O])([OH])[OH])c1"
  IC50: "10 µM"
